# experiment.description: yeast display, Sf9 membrane polyspecificity reagent, FACS + sequencing; frameworks hold sequencing errors
endpoint.name: polyreactivity (PSR sort gate)

input.sequence	observed.result
QVQLVEAGGGLVQAGGSLRLSCAASGRIFVYYTMGWYRQAPGKERELVAAIIGGGSTNYADSVKGRFTISRDNAKNTVYLQMNSLKPEDTAVYDCAAVRYRYSYVSHSRIYDYWGQGTQVTVSS	high polyreactivity
QVQLVESGGGLVQAGGSLRLSCAASGILFGPYAKGWYRQAPGKERELVAVISGSGGSTNYADSVKGRFTISRDNGKYTVYLQMNSLKPEVTAVYYCAADSLSKVCYYYWGEGTQVTVSS	low polyreactivity
QVQLVESGGGLVQAGGSLRLSCAASGSTFGYYAMGWYRQAPGKERELVAAISWSGGSTYYADSVKGRFTISRDNAKNTVYLQMNSLKPEDTAVYYCNKVRGKTYYGEGDYWGQGTQVTVSS	high polyreactivity
QVQLVESGGGLVQAGGSLRLSCAASGSIFSHYAMGWYRQAPGKERELVAAISSSGNTYYADSVKGRFTISRDNAKNTVYLQMNSLKPEDTAVYYCNAVVYSPYRYEYWGQGTQVTVSS	low polyreactivity
QVQLEESVGGLVQAGGSLRLSCAASGRIFTIYAMVSYRQAPGKERELVAAISDRGTRTYYADSVKGRFTISRDNAKNTVYLQMNSLKPDDTAVYYCATDALYTYGYDYWGQGTQVTVSS	low polyreactivity
QVHLVESGGCLVQAGGSLRLSCAASGRIFGLYAMGWYRPAPGKESELVAAISEGGGSTNYADSVKWRFTISRDNAKNTVYLQMNILKPEDTAVYYCAATYRTGVRRYYSWGQGTQVTVSS	low polyreactivity
QVQLVESGGGLVQAGGSLRLSCAASGSTFRGYAMGWYRQAPGKERELVAAITRSGGSTYYADSVKGRFTISRDNAKNTVYLQMNSLKPEDTAVYYCNDRAFPYYRRFDYWGQGTQVTVSS	high polyreactivity
QVQHVESGGGLVQAGGSLRLSCAASGFIFPNNAMGWYLQAPGKERELVARISYGGGDTHYADSVKGRFTISRDNAKNTVSLQMNSLKPEDTAVYYCAVKVGQDDYWGQGTQVTVSS	low polyreactivity
QVQLVESGGGLVQAGGSLRLSCSASGSIFYVYAMGWYRPAPGKERELVAAITSSGTTNYADSVKGRFTISRDNAKNTVYLQMNSLKPEDTAVYYCAADPDSGQVPFDYWVQGTQVTVSS	low polyreactivity
QVQLVESAGGLVQAGGRLRVSCAASGFIFLYYPMGWYRKAPGKEREFVAAISWSDGNTYYADSVKGRFTISRDTAKNTDYLQMNSLKREDTAVYYCNARDADAWASGYDYWGQGTQLTVSS	low polyreactivity
QVQLVESGGGLVQAGGSLRLSCAASGITLYRYAMGWYRLAPGKERELVADISSGGGTTYYADSVKGRFTISRDNAKNTVYLQMNSLKPEDTAVYYCAADYGFRYPLYEFWGQGTQVTVSS	low polyreactivity
QVQLVESGGGLVQAGGSLRLSCAASGSIFGGYVMGWFRQAPGKERELVAAITSNGGITYADSVKGRFTISRDNAKNTVYLQMHSLKPEDTAVYYCAADSWFYGGEYKFGYYWGQGTQVTVSS	low polyreactivity
QVQLVESGGGLVQAGGSLSLSCAASGGTFYQYAMGWYRQAPGKERELVAAISTSGARTYYADSVKGRFTISRDNAKNTVYLQMNSLKTEDTAVYYCAADHIRGGLDYWGQGTQVTVSS	high polyreactivity
QVQLVESGGGLVQAGGSLRLSCAASGFTFPYYAMGWYRQAPGKERELVAAISWSGGSTNYADSVKGRFTISRDNAKNTVYLQMNSLIPEDTAVYYCATLPGYSMDFWGQGSQVTVSS	high polyreactivity
QVQLQESGGGLVQAGVSLRLSCAASGTIFTARFMAWYRQAPGKERELVATITDGGNTNHADSVKGRFSISRDNAKNTVSLQMNSLKPEYAAVYYCAAGEVDNDTLLFWGQGSQVTVSS	low polyreactivity
QVQLVESGGGLVQAGGSLRLSCAASGFTFDSYAMGWYRPAPGKERELVAAITSDGSTYYADSVKGRFTISRDNAKNTVYLQMNSLKPEDTAVYYCAARSTARYGYWGQGTQVTVSS	low polyreactivity
QVQLVESGGGLVQAGGSLRLSCAASGSIFDPYAKGWYRQAPGKEREFVAAITGSGGSTSYADSVKGRFTISRDNAKNTVYLQMNSLKPEDTAVYYCAARRTVEWGQGTQVTVSS	high polyreactivity
QVQLVESGGGLVQAGGSLRLSCAASGRTFDAYAMGWYRQAPGKERELVATITSGGGTYYADSVKGRFTISRDNAKNTVYLQMNSLKPEDTAVYYCKKRYVVSRKYDYWGQGTQVTVSS	low polyreactivity
QVQLVESGGGLVQAGGSLRLSCAASGFIFYEYAMGWYRQAPGKERELVARITRSDGSTYYADSVKGRFTISRDNAKNTVYFQMNSLKPEDTAVYYCNVRRAYYRRGPYYSTYYYWGQGTQVTVSS	high polyreactivity
QVQLVESGGGLFQAGGSLRLSCAASGFTFPDYAMGSYRQAPGKERELVAAISSDGSTYDADSVKGRFTISRDIAKTTVYLQMNSLKPEDTAVYYCAAYVVWLYGYAYWGQGTQVTVSS	low polyreactivity
QVQLVESGGGLVQAGGSLRLSCAASGRTFVSNAMGWYRQAPGKERELVAAISGSGGITYYADSVKGRFTISRDNAKNTVYLQMNSLKPEDTAVYYCNADSSGWFPFDYWGQGTQVTVSS	low polyreactivity

Reference source: the nanobody polyreactivity screen of Harvey et al. (2022)
